# targetEntity: Human M3 receptor (Homo sapiens)
# Sequence (P20309 whole entry): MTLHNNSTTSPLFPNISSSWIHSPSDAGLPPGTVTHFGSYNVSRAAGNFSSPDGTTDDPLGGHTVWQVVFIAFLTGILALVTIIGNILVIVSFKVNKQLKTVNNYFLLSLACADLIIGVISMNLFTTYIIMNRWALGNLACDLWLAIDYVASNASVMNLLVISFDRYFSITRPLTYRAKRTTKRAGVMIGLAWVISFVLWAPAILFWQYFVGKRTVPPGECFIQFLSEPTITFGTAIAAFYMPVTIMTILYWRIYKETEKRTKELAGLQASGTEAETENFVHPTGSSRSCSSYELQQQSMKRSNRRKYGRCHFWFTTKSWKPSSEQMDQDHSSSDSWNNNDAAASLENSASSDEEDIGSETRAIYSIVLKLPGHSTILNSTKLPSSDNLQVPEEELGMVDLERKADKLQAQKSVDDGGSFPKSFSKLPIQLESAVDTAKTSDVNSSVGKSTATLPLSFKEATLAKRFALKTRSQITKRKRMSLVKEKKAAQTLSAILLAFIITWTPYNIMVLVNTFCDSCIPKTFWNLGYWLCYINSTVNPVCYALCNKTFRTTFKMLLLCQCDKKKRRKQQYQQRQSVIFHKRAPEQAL
# assayComment: FLIPR Calcium 6 assay for inhibitory activity against Human M3 receptor in CHO cells
# statedConditions: FLIPR calcium signal, antagonist mode
Recorded IC50, one value per entry.

# molecule, IC50
rows = [
    ("CCN(CCN(C)CC1CCC2(CCCCC2)CC1)C(=O)CCC(=O)N1c2ccccc2C(=O)Nc2cccnc21", "6820 nM"),
    ("CCN(CC)CC1CCCCN1CC(=O)N1c2ccccc2C(=O)Nc2cccnc21 (centres unmarked) [AFDX-116, reference compound]", "2100 nM"),
    ("CCN(CCN(C)C1CC2CCCC2C1)C(=O)CCC(=O)N1c2ccccc2C(=O)Nc2cccnc21 (centres unmarked)", "184 nM"),
]

Form field IC50, entry CCN(CCN1CC2CC2C1)C(=O)CCC(=O)N1c2ccccc2C(=O)Nc2cccnc21 (centres unmarked) : 54.1 nM

For this molecule ( `CCN(CCN(C)C12CC3CC(CC(C3)C1)C2)C(=O)CCC(=O)N1c2ccccc2C(=O)Nc2cccnc21` ), measured IC50 is 723 nM
